- TEST_METHOD_NOTES: Mouse Fast PK/BBB: plasma and brain concentration
- Format: in vivo, Male C57bl/6j mice
- MEASUREMENT_CONTEXT: male, C57bl/6j, mouse, brain (whole brain without cerebellum); mice, dose 20 mg/kg oral, 4 hr; read-out: Brain Mean Conc. ± Std. Dev

MOLECULE	READOUT_UNITS	concentration at 4 h
CCc1nc2ccc(C(c3ccc(Cl)cc3)c3ccc(Cl)cc3)cc2n1C1CCN(S(=O)(=O)C(F)(F)F)CC1 [Example 328]	ng/mL	99.3
COc1ccc(C(c2ccc(OC)cc2)c2ccc3nc(C4CCC4)n(C4CCN(S(=O)(=O)C(F)(F)F)CC4)c3c2)cc1 [Example 320]	ng/mL	167
O=S(=O)(N1CCC(Cn2c(C3CC3)nc3ccc(C(c4ccc(Cl)cc4)c4ccc(Cl)cc4)cc32)CC1)C(F)(F)F [Example 316]	ng/mL	30.2
CCc1nc2ccc(C(c3ccc(Cl)cc3)c3ccc(Cl)cc3)cc2n1CC1CCN(S(=O)(=O)C(F)(F)F)CC1 [Example 315]	ng/mL	48.4
CCc1nc2ccc(C(c3ccc(Cl)cc3)c3nccs3)cc2n1C1CCN(S(=O)(=O)C(F)(F)F)CC1 (stereo not shown) [Example 400]	ng/mL	292
O=S(=O)(N1CCC(n2c(C3CC3)nc3ccc(C(c4ccc(Cl)cc4)c4ccc(Cl)cc4)cc32)CC1)C(F)(F)F [Example 335]	ng/mL	104
O=S(=O)(N1CCC(n2c(C3CCC3)nc3ccc(C(c4ccc(Cl)cc4)c4ccc(Cl)cc4)cc32)CC1)C(F)(F)F [Example 318]	ng/mL	69.4

====

- TEST_METHOD_NOTES: Chronic DIO Mouse: plasma and brain concentrations
- Format: in vivo
- MEASUREMENT_CONTEXT: brain, oral, DIO mice, 3 mg/kg daily, 2 Hours Post Dose, Day 25, read-out: Brain Concentration (Std Dev)

TEST_SMILES	concentration at 2 h [ng/g]
O=C(O)c1cccc(CN2CCC(n3c(C4CC4)nc4ccc(C(c5ccc(Cl)cc5)c5ccc(Cl)cc5)cc43)CC2)c1	29.9

====

- ASSAYED_SYSTEM: Human CB1R (Cannabinoid receptor 1) (Homo sapiens)
- Sequence (P21554 whole entry): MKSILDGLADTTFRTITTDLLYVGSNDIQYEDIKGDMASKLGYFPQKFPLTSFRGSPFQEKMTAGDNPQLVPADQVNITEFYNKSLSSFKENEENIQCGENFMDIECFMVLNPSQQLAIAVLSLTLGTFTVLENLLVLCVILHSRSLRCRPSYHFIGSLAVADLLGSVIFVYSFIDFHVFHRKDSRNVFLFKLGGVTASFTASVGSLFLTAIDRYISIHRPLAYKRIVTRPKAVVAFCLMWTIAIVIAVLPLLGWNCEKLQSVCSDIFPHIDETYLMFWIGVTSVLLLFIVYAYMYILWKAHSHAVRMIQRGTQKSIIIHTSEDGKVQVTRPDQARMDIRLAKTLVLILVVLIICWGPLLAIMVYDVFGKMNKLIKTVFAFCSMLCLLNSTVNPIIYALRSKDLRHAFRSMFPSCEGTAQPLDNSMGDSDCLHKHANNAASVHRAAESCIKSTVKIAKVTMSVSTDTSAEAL
- TEST_METHOD_NOTES: CB-1 in vitro cAMP (HTRF) assay
- Format: cell-based
- MEASUREMENT_CONTEXT: HEK cells, cAMP HTRF, 250 nM forskolin; mean where tested more than once; read-out: CB1 HEK_cAMP EC50
pEC50: −log10 of the molar value.
QUANTITY_MEASURED: pEC50

COMPOUND	MODIFIER	REPORTED_RESULT
O=S(=O)(N1CCC(n2c(C3CCC3)nc3ccc(C(c4ccc(Cl)cc4)c4nccs4)cc32)CC1)C(F)(F)F (centres unmarked)	=	7.22
FC(F)(F)c1csc(C(c2ccc(Cl)cc2)c2ccc3ncn(Cc4ccc(Cl)cc4)c3c2)n1 (centres unmarked)	<	5.00
O=C(O)c1cc(CN2CCC(n3c(C4CC4)nc4ccc(C(c5ccc(Cl)cc5)c5ccc(Cl)cc5)cc43)CC2)ccn1	=	7.37
O=C(O)c1cccc(N2CCC(n3c(C4CC4)nc4ccc(C(c5ccc(Cl)cc5)c5ccc(Cl)cc5)cc43)CC2)c1	=	7.04
CCOC(=O)N1CCC(n2c(N)nc3ccc(C(c4ccc(Cl)cc4)c4nccs4)cc32)CC1 (centres unmarked)	=	6.00
NC(=O)c1ccc(CN2CCC(n3c(C4CC4)nc4ccc(C(c5ccc(Cl)cc5)c5ccc(Cl)cc5)cc43)CC2)cn1	=	8.29
OC(c1ccc(Cl)cc1)(c1ccc2nc(CC(F)(F)F)n(CCc3cccc(Cl)c3)c2c1)c1nccs1 (centres unmarked)	=	5.62
NC(=O)c1ccc(CN2CCC(n3c(C4CC4)nc4ccc(C(c5ccc(Cl)cc5)c5ccc(Cl)cc5)cc43)CC2)cc1	=	7.86
O=S(=O)(c1cc(Cl)c(O)c(Cl)c1)N1CCC(n2c(C3CC3)nc3ccc(C(c4ccc(Cl)cc4)c4ccc(Cl)cc4)cc32)CC1	=	7.96
O=C(O)COc1ccc(Cn2c(C3CC3)nc3ccc(C(c4ccc(Cl)cc4)c4ccc(Cl)cc4)cc32)cc1	<	5.00
CS(=O)(=O)N1CCC(n2c(C3CC3)nc3ccc(C(c4ccc(Cl)cc4)c4ccc(Cl)cc4)cc32)CC1	=	8.18
O=C(CCO)N1CCC(n2c(C3CC3)nc3ccc(C(c4ccc(Cl)cc4)c4ccc(Cl)cc4)cc32)CC1	=	7.79
O=C(O)c1cc(F)cc(CN2CCC(n3c(C4CC4)nc4ccc(C(c5ccc(Cl)cc5)c5ccc(Cl)cc5)cc43)CC2)c1	=	8.14
OCc1nc2ccc(C(c3ccc(Cl)cc3)c3nccs3)cc2n1-c1cccc(Cl)c1 (centres unmarked)	=	5.95
